Attribution: the RNAGym collection of RNA variant scans (doi:10.1101/gr.219683.116)

Give measured exon inclusion enrichment index for each item. Keep answers brief.
B1: mRNA-splicing (parent)
chain: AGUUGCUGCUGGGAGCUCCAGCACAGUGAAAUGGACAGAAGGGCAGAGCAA

Variants of: B1
Test: exon inclusion enrichment index; higher = more inclusion; WT1 exon 5 minigene, HEK293
Output spec: single numeric token, no unit.

Prompt line: Reported exon inclusion enrichment index for G5A C6U U7A G8U C9A A40U G41U : what is it?
Response line: 0.0246

Prompt line: Same read-out for G5C C6G U7C U10C C44A A45U ?
Response line: 5.86

Prompt line: Same lookup for G5A C6G U7G C9A U27A G28C , please.
Response line: 0.0045

Prompt line: Now try G5A U7C G8A U10C A23C C24U .
Response line: 1.16

Prompt line: Next variant: G5C C6G U7C U10C G28C A29U
Response line: 2.35

Prompt line: One more variant: G5U G8U C9U G13C A14C
Response line: 0.063

Prompt line: // repeat for G5C C6U U7G U10C and report
Response line: 0.82

Prompt line: Param item: G5C C6U G8C C9U U10C A31U U32G
Response line: 1.04

Prompt line: Lookup G5C C6A U7C G8A U10A G12C G13U
Response line: 0.0133

Prompt line: Follow-up item: G5C C6A U7A G8U C9A
Response line: 0.415

Prompt line: Another: G5U G8U C9U G13U A14C
Response line: 0.0727

Prompt line: Now this one: G5C C6G U7C U10C C19G
Response line: 3.72

Prompt line: And G5A U7C G8A U10C A37C ?
Response line: 3.08

Prompt line: Also G5A U7C G8A U10C U32A G33U ?
Response line: 1.68

Prompt line: Same again, this time with `U7C`
Response line: 0.538

Prompt line: Quick one: G5A C6U U7A G8U C9A G15U C16U
Response line: 0.00626

Prompt line: Moving on to `C16G`
Response line: 0.103

Prompt line: Try G38A A39G next.
Response line: 0.186

Prompt line: Same again, this time with G5U G8U C9U C16A
Response line: 0.141

Prompt line: What do you get for G5C C6A U7C G8A U10A G46C A47C ?
Response line: 0.209

Prompt line: Now give it for C6U G8C C9U U10C too.
Response line: 1.11

Prompt line: Repeat for the following variant: G5A C6U U7A G8U C9A G11U
Response line: 0.0798

Prompt line: Next: G5C C6G U7C U10C G34U A35G
Response line: 1.24

Prompt line: Check G5U G8U C9U A35U C36G too.
Response line: 0.0125

Prompt line: Another variant to check: G2A U3C G5C C6G U7C U10C
Response line: 3.58

Prompt line: // query: G5A U7C G8A U10C G34A
Response line: 1.51

Prompt line: Then G5C C6U G8C C9U U10C C19G A20G ?
Response line: 1.04

Prompt line: Thanks! And G5C C6A U7C G8A U10A A35G ?
Response line: 0.0247

Prompt line: What do you get for G5C C6U G8C C9U U10C U32G ?
Response line: 0.212

Prompt line: Also, G5A U7C G8A U10C A30U A31C please.
Response line: 2.13

Prompt line: Try this variant too: G5C C6A U7C G8A U10A A23C C24A
Response line: 0.209

Prompt line: Now this one: G5A C6U U7A G8U C9A A35U C36U
Response line: 0.000729

Prompt line: Now give it for G5C C6U G8C C9U U10C A30G too.
Response line: 2.12

Prompt line: Repeat with G5U G8U C9U G46C A47G
Response line: 0.306

Prompt line: Further, for G21A C22A ?
Response line: 1.17

Prompt line: Same thing, different variant: G5C C6U G8C C9U U10A G11A
Response line: 0.661

Prompt line: How about this variant: G5U G8U C9U C22U A23G
Response line: 0.109

Prompt line: Another variant: C6A U7C C9A U10C A47C G48U
Response line: 3.09

Prompt line: Likewise for G5A C6U U7A G8U C9A A20C ?
Response line: 0.047

Prompt line: Similarly, G5C C6A U7C G8A U10A G33C G34C ?
Response line: 0.0275

Prompt line: Thanks! And G5A C6U U7A G8U C9A G21A ?
Response line: 0.071

Prompt line: G5C C6G U7C U10C G41C G42U ?
Response line: 4.21

Prompt line: Consider next the variant G5A C6G U7G C9A C44G A45C in the same way.
Response line: 0.00471

Prompt line: // next record G5A C6U U7A G8U C9A C16A U17A
Response line: 0.0573

Prompt line: What do we get for C6A U7A C9A U10A G15U C16U ?
Response line: 0.36

Prompt line: Try the variant G5C C6G U7C U10C U32A G33U
Response line: 2.76
